- Test system: UO-31
- experimental-details: NCI tumour cell line growth inhibition, 48 h
The source made the active and inactive calls. Rule as the data show it: active = GI50 up to about 1.1 µM and inactive = higher.
Outcome codes: YES (active), NO (inactive)

[[record]]
compound = "CC(C)c1ccc(/C=C/c2cc(C(=O)NNC(=O)NC3CCCCC3)nc(S)n2)cc1"
tested_system = "UO-31"
group = "NO"

[[record]]
compound = "CN(C)C1=Nc2ccccc2C(=S)N2CSCC12 (centres undefined)"
tested_system = "UO-31"
group = "NO"

[[record]]
compound = "Cc1ccccc1NC(=O)CC(=O)NNC(Sc1ccccc1)c1cc(/N=N/c2ccc(Br)cc2)ccc1O (centres undefined)"
tested_system = "UO-31"
group = "NO"

[[record]]
compound = "CCCCc1c2c(nc3c1CCCC3O)CCCC2 (centres undefined)"
tested_system = "UO-31"
group = "NO"

[[record]]
compound = "COC(=O)CCC1(C)C2CCC1/C(=N/O)C2 (centres undefined)"
tested_system = "UO-31"
group = "NO"

[[record]]
compound = "COc1ccc2o/c(=N\\c3ccc(F)cc3)c(C(N)=O)cc2c1"
tested_system = "UO-31"
group = "NO"

[[record]]
compound = "CC1CCCC2(O1)OC1CC(=O)OC1C1=C2C(=O)c2ccccc2C1=O (centres undefined)"
tested_system = "UO-31"
group = "NO"

[[record]]
compound = "CC(C)(C)c1cc2c(O)c(c1)Cc1cc(C(C)(C)C)cc(c1O)Cc1cc(C(C)(C)C)cc(c1O)Cc1cc(C(C)(C)C)cc(c1O)Cc1cc(C(C)(C)C)cc(c1O)Cc1cc(C(C)(C)C)cc(c1O)Cc1cc(C(C)(C)C)cc(c1O)Cc1cc(C(C)(C)C)cc(c1O)C2"
tested_system = "UO-31"
group = "NO"

[[record]]
compound = "CC(=O)OC(C)c1cc2c(s1)C(=O)c1ccsc1C2=O (centres undefined)"
tested_system = "UO-31"
group = "YES"

[[record]]
compound = "COc1ccc(/N=N/C(C(=O)c2ccccc2)C(=O)c2ccccc2)cc1"
tested_system = "UO-31"
group = "NO"

[[record]]
compound = "N=C(N)NCCCC(NC(=O)OCCCCCn1ccc(N)nc1=O)C(=O)O (centres undefined)"
tested_system = "UO-31"
group = "NO"

[[record]]
compound = "COC(=O)c1c(C)cccc1C1CN=NC12Cc1cccc(C)c1C2=O (centres undefined)"
tested_system = "UO-31"
group = "NO"

[[record]]
compound = "O=c1ccn([C@@H]2C=C(CO)[C@@H](O)[C@H]2O)c(=O)[nH]1"
tested_system = "UO-31"
group = "NO"

[[record]]
compound = "CC(=O)OC12COC1CC(O)C1(C)C(=O)C(O)C3=C(C)C(O)CC(O)(C(OC(=O)c4ccccc4)C21)C3(C)C (centres undefined)"
tested_system = "UO-31"
group = "NO"


---

- System: EKVX
- experimental-details: NCI tumour cell line growth inhibition, 48 h
Calls of active or inactive are those of the source. No stated cut-off is given here; in the data, active = GI50 up to about 1.1 µM and inactive = higher.
endpoint: GI50

[[record]]
molecule = "CC(C)(C)OC(=O)NCCCCC(NC(=O)OCc1ccccc1)C(N)=O (stereo unspecified)"
value = "82.2 µM (inactive)"

[[record]]
molecule = "Nc1ccc(/N=N/c2ccc(-c3ccc(/N=N/c4c(S(=O)(=O)O)cc5cc(S(=O)(=O)O)c(/N=N/c6ccc([N+](=O)[O-])cc6)c(N)c5c4O)cc3)cc2)c2cc(S(=O)(=O)O)ccc12"
value = "> 100 µM (inactive)"

[[record]]
molecule = "CCOC(=N)CC(=O)Nc1cccc(C)c1C"
value = "> 100 µM (inactive)"

[[record]]
molecule = "CCOC(=O)C(NC(=O)CC)(Nc1ccc(S(=O)(=O)Nc2ccc(OC)nn2)cc1)C(F)(F)F (stereo unspecified)"
value = "> 100 µM (inactive)"

[[record]]
molecule = "O=[N+]([O-])c1ccc2[nH]c(-c3ccc(Cl)cc3)nc2c1"
value = "14.4 µM (inactive)"

[[record]]
molecule = "CN1CCN(CCCNN)CC1"
value = "> 100 µM (inactive)"

[[record]]
molecule = "COc1ccc(/N=N/C(C(=O)c2ccccc2)C(=O)c2ccccc2)cc1"
value = "21.3 µM (inactive)"

[[record]]
molecule = "C=C(C)[C@@]1(O)O[C@H]2C[C@@]3(C)OC(=CC3=O)/C(C)=C\\[C@@H]3OC(=O)[C@@]1(C)[C@H]32"
value = "29.2 µM (inactive)"

[[record]]
molecule = "CC(C(=O)O)C(C)(O)C(=O)O (stereo unspecified)"
value = "> 100 µM (inactive)"

[[record]]
molecule = "O=C1C2=C(C3=NCCc4c[nH]c1c43)c1c(cc(Br)c(O)c1Br)CCN2"
value = "17.8 µM (inactive)"

[[record]]
molecule = "Cc1ccc(C)c(N2C(=O)C(=O)C(c3nc4ccccc4s3)/C(=N/N)C2=O)c1 (stereo unspecified)"
value = "> 100 µM (inactive)"


---

Parameter: GI50. Scope: all listed entries.
- Test system: NCI/ADR-RES
- experimental-details: NCI tumour cell line growth inhibition, 48 h
Calls of active or inactive are those of the source. Cut-off read from the data, not from the text of the source: active = GI50 up to about 1.1 µM and inactive = higher.
endpoint: GI50

[[record]]
compound = "CCc1cccc2c3c([nH]c12)-c1ccccc1NC(=O)C3"
tested_system = "NCI/ADR-RES"
endpoint = "GI50"
value = "> 100 µM (inactive)"

[[record]]
compound = "COC(=O)CCC1(C)C2CCC1/C(=N/O)C2 (stereo not drawn)"
tested_system = "NCI/ADR-RES"
endpoint = "GI50"
value = "> 100 µM (inactive)"

[[record]]
compound = "CN1CCN(CCCNN)CC1"
tested_system = "NCI/ADR-RES"
endpoint = "GI50"
value = "> 100 µM (inactive)"


---

- Tested on: CCRF-CEM
- experimental-details: NCI tumour cell line growth inhibition, 48 h
Active and inactive are the calls of the source. Cut-off read from the data, not from the text of the source: active = GI50 up to about 1.1 µM and inactive = higher.
Outcome codes: Y = active, N = inactive

[[record]]
compound = "CC1=C(/C=C/C(C)=C/C2CC(N(C)C)=CC(=O)O2)C(C)(C)CCC1 (centres undefined)"
group = "N"

[[record]]
compound = "NC(=O)c1cn(C2OC(CO)C(O)C2O)c2nc[n+]([O-])c(N)c12 (centres undefined)"
group = "Y"

[[record]]
compound = "Nc1ncc2c(n1)-c1ccccc1OC2NC1CC1 (centres undefined)"
group = "N"

[[record]]
compound = "O=C1O[C@@H](c2ccc3c(c2)OCO3)C2C(=O)O[C@@H](c3ccc4c(c3)OCO4)C12 (some centres undefined)"
group = "N"


---

- System: SR
- experimental-details: NCI tumour cell line growth inhibition, 48 h
Activity calls are given as the source filed them. No stated cut-off is given here; in the data, active = GI50 up to about 1.1 µM and inactive = higher.
Parameter: GI50. Scope: all listed entries.
endpoint: GI50

[[record]]
molecule = "O=C(O)c1ccccc1C1c2ccccc2Oc2ccccc21"
value = "41.9 µM (inactive)"

[[record]]
molecule = "N#Cc1cc2c(n(C3OC(CO)C(O)C(O)C3O)c1=S)CCC2 (stereo unspecified)"
value = "> 100 µM (inactive)"

[[record]]
molecule = "O=C(Nc1sccc1S(=O)(=O)c1ccc(Cl)cc1)C(F)(F)F"
value = "22.8 µM (inactive)"

[[record]]
molecule = "COC/C=C\\[C@@]1(O)CCCC[C@@H]1CC(OC)OC"
value = "37.3 µM (inactive)"

[[record]]
molecule = "CC(C)CCNC(=O)c1ccc(CNC(=O)/C=C/c2ccc(-c3ccccc3[N+](=O)[O-])o2)cc1"
value = "91.8 µM (inactive)"

[[record]]
molecule = "CCOP(=O)(OCC)/C(C#N)=C/c1coc2cc(C)cc(C)c2c1=O"
value = "> 100 µM (inactive)"


---

- Test system: SNB-75
- experimental-details: NCI tumour cell line growth inhibition, 48 h
The source made the active and inactive calls. No stated cut-off is given here; in the data, active = GI50 up to about 1.1 µM and inactive = higher.
Parameter: GI50. Scope: all listed entries.
endpoint: GI50

[[record]]
compound = "CCOC(=O)/C(C#N)=C(/NNc1ccccc1)c1ccncc1C(=O)O"
tested_system = "SNB-75"
value = "> 100 µM (inactive)"

[[record]]
compound = "Cc1ccc(-c2n[nH]c(=O)[nH]2)cc1[N+](=O)[O-]"
tested_system = "SNB-75"
value = "61 µM (inactive)"

[[record]]
compound = "COc1ccccc1NC(=O)C1=C(C)NC(C)=C(C(=O)Nc2ccccc2OC)C1c1cccc2c1OCO2"
tested_system = "SNB-75"
value = "14.1 µM (inactive)"

[[record]]
compound = "Nc1ccc2c(=O)cc(-c3ccc(Br)s3)[nH]c2n1"
tested_system = "SNB-75"
value = "2.47 µM (inactive)"

[[record]]
compound = "O=C(Nc1nccs1)NS(=O)(=O)n1cnc2ccccc21"
tested_system = "SNB-75"
value = "> 100 µM (inactive)"

[[record]]
compound = "O=c1[nH]c(=O)n(C2CC(O)C(CO)O2)c2nc3ccc4cc5ccccc5cc4c3nc12 (configuration not stated)"
tested_system = "SNB-75"
value = "> 100 µM (inactive)"

[[record]]
compound = "O=c1[nH]c(=O)n(C2C(CO)OC(CO)C2O)cc1F (configuration not stated)"
tested_system = "SNB-75"
value = "> 100 µM (inactive)"

[[record]]
compound = "Nc1nc(Cl)cc(NCCC2(CO)CCC2)n1"
tested_system = "SNB-75"
value = "> 100 µM (inactive)"

[[record]]
compound = "O=c1cnn(C/C=C/CBr)c(=O)[nH]1"
tested_system = "SNB-75"
value = "18.8 µM (inactive)"

[[record]]
compound = "COc1ccc(/C=c2\\sc3n(c2=O)CCN=3)cc1"
tested_system = "SNB-75"
value = "57.8 µM (inactive)"

[[record]]
compound = "CCCCCC/C=C1\\CCC(CN(C)C)C1=O (configuration not stated)"
tested_system = "SNB-75"
value = "11 µM (inactive)"

[[record]]
compound = "CNC(=O)N(C1=NCC(C)S1)c1ccc(C)c(C)c1 (configuration not stated)"
tested_system = "SNB-75"
value = "1.31 µM (inactive)"

[[record]]
compound = "C/C(=N\\NC(N)=S)c1ccc(/C(C)=N/NC(N)=S)cc1"
tested_system = "SNB-75"
value = "> 100 µM (inactive)"

[[record]]
compound = "CC1=C(/C=C/C(C)=C/C2CC(N(C)C)=CC(=O)O2)C(C)(C)CCC1 (configuration not stated)"
tested_system = "SNB-75"
value = "17.7 µM (inactive)"

[[record]]
compound = "COc1cc2cc(C(=O)N3CC(CCl)c4ccc([N+](C)(C)Cc5ccccc5[N+](=O)[O-])cc43)[nH]c2c(OC)c1OC (configuration not stated)"
tested_system = "SNB-75"
value = "4.09 µM (inactive)"

[[record]]
compound = "CCCCCC(/C=N/NC(N)=S)C(O)(C(F)(F)F)C(F)(F)F (configuration not stated)"
tested_system = "SNB-75"
value = "> 10 µM (inactive)"

[[record]]
compound = "O=C(Nc1ccc([As](=O)(O)O)cc1)Nc1cccc(Cl)c1Cl"
tested_system = "SNB-75"
value = "21.7 µM (inactive)"

